# EXPERIMENT SUMMARY: yeast display, Sf9 membrane polyspecificity reagent, FACS + sequencing; frameworks hold sequencing errors
EXPERIMENTAL ENDPOINT: polyreactivity (PSR sort gate)

Observe how each entry below is paired with its result.
biopolymer_sequence=QVQLVESGGGLVQAGGSLRLSCAASGNTFYPKDMGWYRQAPGKERELVAAITTNDGDTYYADSVKGRFTISRDNAKNTVYLQMNRLKPEDTAVYYCAADSGSTSEYEYWGQGTQVTVSS experimental_value="low polyreactivity"
biopolymer_sequence=QVQLVESGGGLVQAGGSLRLSCSASGRNFWFYAKGWYRQAPGKERELVAAISSGGSTNYADSVKGRFTISRDNAKNTVYLQMNSLKPEDTAVYYCAKVGNIPYGTRYYSNRYDYWGQGTLVTVSS experimental_value="low polyreactivity"
biopolymer_sequence=QVQLVESGGGLVQAGGSLRVSCAASGRTCRYYAMGWYRQEHGTEREWVAVISWSGGTTRYADSVKGRFTISRDNAKNTVYIQMNSLKPEDTAVYYCAARVSVWYNYWGQGTQVTVSS experimental_value="high polyreactivity"
biopolymer_sequence=QVQLVESGGGLVQAGGSLRISCAASGRIFGLYAMGWYRQAPGKERELVATINNSGGSTYYADSVKGRFTISRDNAKNTVYLEMKSLKPEDTAVYYCNAEFLYAASFIEYDYWGQVTQVTVSS experimental_value="high polyreactivity"
biopolymer_sequence=QVQLVESGGGLVQAGGSLRLSCAASGITITRYDMGWYRQAPGKERELVAAINWSGGRTYYADSVKGRFTISRDNAKYTVYLQMNSLKPEDTAVYYCNRALKYRRRDYWGQGTQVTVSS experimental_value="high polyreactivity"
biopolymer_sequence=QVQLVESGGGLVQAGGSLRLSCAASGFIFRYYAMGWYRQEPGKERELVAAISGSGGSKYYADSVKGRFTISRDNAKNNVYLQMNSLKQEDTAVYYFAKSYGSHRKIRTSFGYWGQGTQVTVSS experimental_value="high polyreactivity"
biopolymer_sequence=QVQLVESGGGLVQAGGSLRLSCAASGRISPNNAMGWYIPAPGKERELVAAITASGGTTYYADSVKGRFTISRDNAKYTVYLQMNSLKPEDSAVYYCAAAVWYRGWYRYDYWGQGTQVTVSS experimental_value="low polyreactivity"
biopolymer_sequence=QVQLVESGGGVVQAGGSLRLSCAASGNIFAVYAMGWYREAPGKERELVAAIRKSGATTYYADSVKGRFTISRDNAKNTVYLQIHSLKPEDTAVYYCAARTFKDAGTAYGSWGQGTQVTVSS experimental_value="high polyreactivity"

stdin: Note down polyreactivity (PSR sort gate) recorded for QVQLVESGGGLVQAGGSLRLSCAASGFTFATYAMGWYRQAPGKKGRLVAAISNAGSTKYADSVKGRFTISRDNAKNTVYLQMNSLKPEDTAVYYCAASTLYASSYYLYDYWGQGTQVTVSS
stdout: high polyreactivity

stdin: Note down polyreactivity (PSR sort gate) recorded for QVQLVESGGGLVQAGGSLRLSCAASGSTFEYNAMGWYRQAPGKERELVASSTNYADSVKGRFTISLDNAKNTVYLQMNSLKPEDTAVYYCAREQGVNRNHDYWGQGTQVNVSS
stdout: low polyreactivity

----------
# EXPERIMENT SUMMARY: yeast display, Sf9 membrane polyspecificity reagent, FACS + sequencing; frameworks hold sequencing errors
EXPERIMENTAL ENDPOINT: polyreactivity (PSR sort gate)

biopolymer_sequence=QVQIVESGGGLVQAGGSLRLSCAASGRSFYKYAMGWYRQAPGKERELVAAISKSGGRTYYADSVKGRFTISRDNAKNTVYLQMNSLKPEDTAVYYCAAEPFIPDQSRYYYWGQGTQVTVSS experimental_endpoint="polyreactivity (PSR sort gate)" experimental_value="high polyreactivity"
biopolymer_sequence=QVQLVESGGRLVQAGGSLRLSCAASGSTFGRYTMGWYRQAPGKERELVTAITSSGDSTYYADSVKGRFTISRDNAKNTVYLQMNSLKPEDTAVYDCAADYADLNDYWGQGTQVTVSS experimental_endpoint="polyreactivity (PSR sort gate)" experimental_value="low polyreactivity"
biopolymer_sequence=QVQLVESGGGLVQAGGSLRLSCAASGSIFFRYAMGWYRPAPGKERELVAAISSDGSTYYADSVKGRFTISRDNAKNTVYLQMNSLKPEDTAVYYCNAEQAIFYWYATVTYDYWGQGTQVTVSS experimental_endpoint="polyreactivity (PSR sort gate)" experimental_value="low polyreactivity"
biopolymer_sequence=QVQLVESGGGLVQAGGSLRLSCAASGYTFSANADMGWYRQAPGKESELVAAITGSGGITYYADSVKGRFTISRDNAKNTVYLQMNSLKPEDTAVYYCAAAVVDAAFDYWGQGTQVTVSS experimental_endpoint="polyreactivity (PSR sort gate)" experimental_value="low polyreactivity"

// moving on: another record for polyreactivity (PSR sort gate)
stdin: Note down polyreactivity (PSR sort gate) recorded for QVQLVESGGGLVQAGGSLRLSCAASGRIFVYYAMGWYRQAPGKERELVAAITASGASTYYADSVKGRFTISRDNAKNTVYLQMNSLKPEDTAVYYCNVLYPRKYWQVREYYWGQGTQVTVSS
stdout: high polyreactivity

----------
# EXPERIMENT SUMMARY: yeast display, Sf9 membrane polyspecificity reagent, FACS + sequencing; frameworks hold sequencing errors
EXPERIMENTAL ENDPOINT: polyreactivity (PSR sort gate)

biopolymer_sequence=QVQLVESGGGLVQAGGSLRLSCAASGFTYRVNAMGWYRQATGKERELVAAITVSDGRTYYADSVKGRFTISRDNAKNTVYLQMNSLKPEDTAVYYCAADYKGAFTTDWSSEYEYWGQGTQVTVSS experimental_value="low polyreactivity"
biopolymer_sequence=QVQLVESGGGLVQAGGSLRLSCAASGSTFDYYAMGWYRQAPAKERELVAVISRSGGSTYYADSVKGRFTISRDNAKNTVYLQMNSLKPEDTAVYYCAKSRPSKYDYWGQGTQVTVSS experimental_value="high polyreactivity"
biopolymer_sequence=QVQLVESVLGLVQAGGSLRLICDASGSIFGYNVIGWYRQAPGKERELVAAITGRGDSTYYADSVKGRFTISRDNAKNTVYLQMNSLKPEDTAVYYCAAYPNQSEYYYWGQGTQVTVSS experimental_value="low polyreactivity"
biopolymer_sequence=QVQLVESGGGLVQAGGSLRLSCAASGRIFALYAMGWYRQAPGKERELVAAITWRGGRTRYADSVKGRFTISRDNAKNTVYLQMNSLKPEDTAVYYCNKRLFASRYDYWGQGTQVTVSS experimental_value="high polyreactivity"
biopolymer_sequence=QVQLVESGVGLVQAGGSLRLSCAASGSTFDFNAMGWYRPAPGKERELVAAITGSGGSTDYADSVKGRFTISRDNAKNTVYLQMNSLKPEDTAVYYCNAGKTIDYRDGVGYDHWGQGTQVTVSS experimental_value="low polyreactivity"
biopolymer_sequence=QVQLVESGGGLVQAGGSLRLSCAASGSIFRRYAMGWYRQAPGKERELVAGISSGGYTNYADSVKGRFTISRDNAKNTVYLQMNSLKPEDTAVYYCAAKQYRYVRYRPVDYWGQGTQVTVSS experimental_value="high polyreactivity"
biopolymer_sequence=QVQLGESGGGLCQAGGSLRLSCAASGSIIAGYTMGWYRPAPGNARELVAGIRRGGSTNYADSVKGRVTISRDNAKNTVYLQMNSLKPEDTAVYYCNAQLTRSYVLRTFDYWGQGTQVTVSS experimental_value="high polyreactivity"
biopolymer_sequence=QVQLVESAGGLVQEGGSLRLICAASGSIFEPYAMGWYRQAPGKERELVAAIRWSGGSTYYADSVKGRFTISRDNAKNTVYLQMNRLIPEDTAVYYCAKYFPAGYYYWGQGTQVTVSS experimental_value="low polyreactivity"
biopolymer_sequence=QVQLVESGGGLVQAGGSLRLSCAASGSIFVHNAMGWYRQAPGKERELVAAISSNGGRTYYADSVKGRFTISRDNAKNTVYLQMNSLKPEDTAVYYCNAPRFVGLNVYGYDYWGQGTQVTVSS experimental_value="high polyreactivity"
biopolymer_sequence=QVQLVESGGGLVQAGGSLRLSCAASGSPFKRYAMGWYRQAPGKERELVAAISSRGSSTYYADSVKGRFTISRDNAKNTVYLQMNSLKPEDTAVYYCAADRYTFWTVHSDYWGQGTQVTVSS experimental_value="high polyreactivity"

stdin: Note down polyreactivity (PSR sort gate) recorded for QVKLVESGGGLVQAGGSLRLICAASGRISQSNAMGRYRQAPGKERELVAAISWRGGSTYYADSVMGRFTISRDNAKNTVYLQMNSLKPEDTAVYYSAVRGKYDRHYYWGQGTQVTVSS
stdout: high polyreactivity

----------
# EXPERIMENT SUMMARY: yeast display, Sf9 membrane polyspecificity reagent, FACS + sequencing; frameworks hold sequencing errors
EXPERIMENTAL ENDPOINT: polyreactivity (PSR sort gate)

biopolymer_sequence=QVQLVESGGGLVQAGGSLRLSCAASGSIFKQYDMGWYRQAPGKERDLVAAITASDGSTYYADSVKGRFTISRDNAMNTVYLQMNSLKPEDTAVYFCAADGGVAWGYGYCGQGTQVTVSS experimental_value="low polyreactivity"
biopolymer_sequence=QVQLVESGGGLVQAGGTLRLSCAATGSTFPYNAMGWYRQAPGKERELVAAINSAGGTNYADSVKGRFTISRDNAKNTVYLQMNSLKPEDTAVYYCAADGSGYYDWYYYWGQGTQVTVSS experimental_value="low polyreactivity"
